FYI, the data here is from ChEMBL document CHEMBL5352488.

Exercise: state measured selectivity ratio for each of the compounds provided.
- measurementProtocol: Selectivity index, ratio of CC50 for cytotoxicity against human MT4 cells assessed as reduction in cell viability by MTT assay to EC50 for anti-HIV activity against wild type HIV-1 IIIB infected in human MT4 cells assessed as inhibition of virus-induced cytopathic effect by MTT assay
- Assay type: toxicity, cell-based
- measurementContext: read-out: Ratio CC50/EC50

Q: Quick one: give measured selectivity ratio for CC(C)Sc1nc(C(N=[N+]=[N-])c2ccc(F)cc2)c(C(C)C)c(=O)[nH]1 (stereo not given)
A: > 298

Q: Give the value of selectivity ratio reported for the following: CC(C)Sc1nc(C(N=[N+]=[N-])c2ccc(Br)cc2)c(C(C)C)c(=O)[nH]1 (stereo not given)
A: 23

Q: Specify reported selectivity ratio for the compound shown: CCc1c(C(N=[N+]=[N-])c2ccc(OC(F)(F)F)cc2)nc(SC(C)C)[nH]c1=O (stereo not given)
A: > 50

Q: // fetch selectivity ratio given entry CCc1c(C(N=[N+]=[N-])c2ccc3ccccc3c2)nc(SC(C)C)[nH]c1=O (stereo not given)
A: < 8

Q: Indicate its recorded selectivity ratio; the compound in question is CCc1c(C(N=[N+]=[N-])c2cc(OC)cc(OC)c2)nc(SC(C)C)[nH]c1=O (stereo not given)
A: > 349
